Species on record: Rattus norvegicus
procedureDetails: Selectivity for rat liver HDAC6 over rat liver HDAC1
Non-standard residues stand in square brackets, D forms with d. Residues, ends and D or L forms follow the SMILES beside them. *: point of attachment. Asu = N[C@@H](CCCCCC(=O)O)C(=O)O; Aib = CC(C)(N)C(=O)O; NHOH = ON*
# label = Satisfied if Ratio IC50 >= 1 else Not satisfied

Q: # check: Ratio IC50 of COC(=O)[C@H](Cc1ccc(-c2ccccc2)cc1)NC(=O)CCCCCCC(=O)NO is greater than or equal to 1
A: Not satisfied

Q: # check: Ratio IC50 of COC(=O)[C@H](Cc1ccc(-c2cccs2)cc1)NC(=O)CCCCCCCC(=O)NO is greater than or equal to 1
A: Satisfied

Q: # check: Ratio IC50 of COC(=O)[C@H](Cc1ccc(-c2ccoc2)cc1)NC(=O)CCCCCCCC(=O)NO is greater than or equal to 1
A: Satisfied

Q: # check: Ratio IC50 of COC(=O)[C@H](Cc1ccc(-c2ccsc2)cc1)NC(=O)CCCCCCCC(=O)NO is greater than or equal to 1
A: Satisfied

Q: # check: Ratio IC50 of COC(=O)[C@H](Cc1ccc(-c2ccco2)cc1)NC(=O)CCCCCCCC(=O)NO is greater than or equal to 1
A: Satisfied

Q: # check: Ratio IC50 of COC(=O)[C@H](Cc1ccc(Br)cc1)NC(=O)CCCCCCC(=O)NO is greater than or equal to 1
A: Not satisfied

Q: # check: Ratio IC50 of COC(=O)[C@H](Cc1ccc(-c2ccoc2)cc1)NC(=O)CCCCCCC(=O)NO is greater than or equal to 1
A: Satisfied

Q: # check: Ratio IC50 of COC(=O)[C@H](Cc1ccc(-c2ccc(-c3ccccc3)cc2)cc1)NC(=O)CCCCCCC(=O)NO is greater than or equal to 1
A: Not satisfied

Q: # check: Ratio IC50 of COC(=O)[C@H](Cc1ccc(-c2ccsc2)cc1)NC(=O)CCCCCCC(=O)NO is greater than or equal to 1
A: Satisfied

Q: # check: Ratio IC50 of CC1(C)NC(=O)[C@H](CCCCCC(=O)NO)NC(=O)[C@H]2CCCN2C(=O)[C@H](Cc2ccccc2)NC1=O (cyclo([Aib]F[dP][Asu](NHOH))) is greater than or equal to 1
A: Not satisfied

Q: # check: Ratio IC50 of COC(=O)[C@H](Cc1ccc(-c2ccc3ccccc3c2)cc1)NC(=O)CCCCCCCC(=O)NO is greater than or equal to 1
A: Satisfied

Q: # check: Ratio IC50 of COC(=O)[C@H](Cc1ccc(Br)cc1)NC(=O)CCCCCCCC(=O)NO is greater than or equal to 1
A: Satisfied

Q: # check: Ratio IC50 of COC(=O)[C@H](Cc1ccc(-c2ccco2)cc1)NC(=O)CCCCCCC(=O)NO is greater than or equal to 1
A: Satisfied

---

experimentalSystem: Protein deacetylase HDAC6 (Homo sapiens)
Sequence (Q9UBN7 whole entry): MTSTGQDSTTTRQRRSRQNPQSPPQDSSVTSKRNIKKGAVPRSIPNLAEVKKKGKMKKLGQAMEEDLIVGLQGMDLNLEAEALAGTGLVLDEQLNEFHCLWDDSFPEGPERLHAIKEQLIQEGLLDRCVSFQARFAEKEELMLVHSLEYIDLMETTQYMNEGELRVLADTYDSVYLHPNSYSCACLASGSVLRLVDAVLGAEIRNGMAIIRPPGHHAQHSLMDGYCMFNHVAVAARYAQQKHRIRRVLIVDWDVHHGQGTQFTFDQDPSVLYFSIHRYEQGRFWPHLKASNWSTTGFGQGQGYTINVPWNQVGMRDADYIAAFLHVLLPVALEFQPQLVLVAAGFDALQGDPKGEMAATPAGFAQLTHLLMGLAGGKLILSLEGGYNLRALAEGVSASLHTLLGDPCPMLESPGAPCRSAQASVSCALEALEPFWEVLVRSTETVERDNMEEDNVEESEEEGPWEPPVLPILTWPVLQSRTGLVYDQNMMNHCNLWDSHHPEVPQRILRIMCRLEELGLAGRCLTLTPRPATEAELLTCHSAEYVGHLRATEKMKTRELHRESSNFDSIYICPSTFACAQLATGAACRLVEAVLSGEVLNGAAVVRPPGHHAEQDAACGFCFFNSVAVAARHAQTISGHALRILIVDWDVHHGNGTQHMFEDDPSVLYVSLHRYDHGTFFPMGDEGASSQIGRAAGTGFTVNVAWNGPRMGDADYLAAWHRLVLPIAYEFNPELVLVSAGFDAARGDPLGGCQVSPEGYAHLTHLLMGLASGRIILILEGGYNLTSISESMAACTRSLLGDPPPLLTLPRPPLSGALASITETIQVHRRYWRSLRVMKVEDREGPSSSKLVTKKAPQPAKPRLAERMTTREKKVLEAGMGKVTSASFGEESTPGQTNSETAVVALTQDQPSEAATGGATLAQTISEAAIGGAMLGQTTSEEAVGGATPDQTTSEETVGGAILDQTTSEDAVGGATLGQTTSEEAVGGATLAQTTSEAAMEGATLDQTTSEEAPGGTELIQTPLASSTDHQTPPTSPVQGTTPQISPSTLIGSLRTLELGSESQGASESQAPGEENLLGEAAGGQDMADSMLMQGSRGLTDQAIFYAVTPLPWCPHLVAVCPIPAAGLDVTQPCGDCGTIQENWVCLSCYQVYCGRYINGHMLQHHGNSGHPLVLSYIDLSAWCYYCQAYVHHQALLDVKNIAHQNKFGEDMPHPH
procedureDetails: Inhibition of FLAG-tagged HDAC6 expressed in human 293T cells
Format: cell-based
Please go through the items and note down their log10(IC50).
Log scale reminder: IC50 in nM, then log10 taken.

Q: # lookup: log10(IC50) of COC(=O)[C@H](Cc1ccc(-c2ccc3ccccc3c2)cc1)NC(=O)CCCCCCC(=O)NO
A: 3.07

Q: # lookup: log10(IC50) of COC(=O)[C@H](Cc1ccc(-c2ccsc2)cc1)NC(=O)CCCCCCCC(=O)NO
A: 3.25

Q: # lookup: log10(IC50) of COC(=O)[C@H](Cc1ccc(-c2ccc(-c3ccccc3)cc2)cc1)NC(=O)CCCCCCCC(=O)NO
A: 4.17

Q: # lookup: log10(IC50) of COC(=O)[C@H](Cc1ccc(-c2ccco2)cc1)NC(=O)CCCCCCCC(=O)NO
A: 3.37

Q: # lookup: log10(IC50) of COC(=O)[C@H](Cc1ccc(-c2ccc3ccccc3c2)cc1)NC(=O)CCCCCCCC(=O)NO
A: 3.45

Q: # lookup: log10(IC50) of COC(=O)[C@H](Cc1ccc(Br)cc1)NC(=O)CCCCCCCC(=O)NO
A: 3.67

Q: # lookup: log10(IC50) of COC(=O)[C@H](Cc1ccc(-c2ccoc2)cc1)NC(=O)CCCCCCCC(=O)NO
A: 3.02

Q: # lookup: log10(IC50) of COC(=O)[C@H](Cc1ccc(-c2cccs2)cc1)NC(=O)CCCCCCCC(=O)NO
A: 3.61

---

Test system: HeLa
procedureDetails: Cytotoxicity against human HeLa cells after 48 hrs by One aqueous proliferation assay
Format: functional, cell-based
Entries whose IC50 is below 10 µM take T; entries at or above 10 µM take F.

Q: Identify whether the compound COC(=O)[C@H](Cc1ccc(Br)cc1)NC(=O)CCCCCCC(=O)NO records IC50 below 10 µM.
A: F

Q: Identify whether the compound COC(=O)[C@H](Cc1ccc(-c2ccccc2)cc1)NC(=O)CCCCCCCC(=O)NO records IC50 below 10 µM.
A: T

Q: Identify whether the compound COC(=O)[C@H](Cc1ccc(-c2ccoc2)cc1)NC(=O)CCCCCCCC(=O)NO records IC50 below 10 µM.
A: F

Q: Identify whether the compound COC(=O)[C@H](Cc1ccc(-c2cccs2)cc1)NC(=O)CCCCCCC(=O)NO records IC50 below 10 µM.
A: T

---

experimentalSystem: Histone deacetylase 1 (Rattus norvegicus)
Sequence (Q4QQW4 whole entry): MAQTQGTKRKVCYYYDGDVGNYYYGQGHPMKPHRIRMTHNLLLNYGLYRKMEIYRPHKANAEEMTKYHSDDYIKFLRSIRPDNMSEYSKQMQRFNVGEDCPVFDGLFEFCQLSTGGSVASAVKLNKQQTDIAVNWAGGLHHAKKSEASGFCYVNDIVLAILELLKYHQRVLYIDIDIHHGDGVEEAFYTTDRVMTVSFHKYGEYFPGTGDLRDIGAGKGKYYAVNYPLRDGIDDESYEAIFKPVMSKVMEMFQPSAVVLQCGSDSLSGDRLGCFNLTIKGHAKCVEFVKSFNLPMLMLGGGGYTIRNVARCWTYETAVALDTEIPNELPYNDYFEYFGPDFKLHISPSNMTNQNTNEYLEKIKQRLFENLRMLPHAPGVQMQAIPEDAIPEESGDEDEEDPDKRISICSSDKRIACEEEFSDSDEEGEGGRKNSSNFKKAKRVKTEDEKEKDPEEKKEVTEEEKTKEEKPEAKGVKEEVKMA
procedureDetails: Inhibition of HDAC1 in rat liver extract
parameter: IC50 (nM)
The answer is to be given in nM; state only the numeric part.

Q: # lookup: IC50 of COC(=O)[C@H](Cc1ccc(-c2ccco2)cc1)NC(=O)CCCCCCC(=O)NO
A: 7530

Q: # lookup: IC50 of COC(=O)[C@H](Cc1ccc(-c2ccco2)cc1)NC(=O)CCCCCCCC(=O)NO
A: 2440

Q: # lookup: IC50 of COC(=O)[C@H](Cc1ccc(Br)cc1)NC(=O)CCCCCCCC(=O)NO
A: 2110

Q: # lookup: IC50 of COC(=O)[C@H](Cc1ccc(-c2ccoc2)cc1)NC(=O)CCCCCCCC(=O)NO
A: 3030

Q: # lookup: IC50 of CN(C)c1ccc(C(=O)NCCCCCCC(=O)NO)cc1
A: 240

Q: # lookup: IC50 of COC(=O)[C@H](Cc1ccc(-c2ccoc2)cc1)NC(=O)CCCCCCC(=O)NO
A: 3180

Q: # lookup: IC50 of COC(=O)[C@H](Cc1ccc(-c2ccsc2)cc1)NC(=O)CCCCCCC(=O)NO
A: 590

Q: # lookup: IC50 of COC(=O)[C@H](Cc1ccc(Br)cc1)NC(=O)CCCCCCC(=O)NO
A: 3190

Q: # lookup: IC50 of COC(=O)[C@H](Cc1ccc(-c2cccs2)cc1)NC(=O)CCCCCCCC(=O)NO
A: 2550

---

Species: Rattus norvegicus
procedureDetails: Selectivity for rat liver HDAC6 over rat liver HDAC1
Entries whose Ratio IC50 is below 1 take yes; entries at or above 1 take no.

Q: Identify whether the compound COC(=O)[C@H](Cc1ccc(-c2ccccc2)cc1)NC(=O)CCCCCCCC(=O)NO records Ratio IC50 below 1.
A: yes

Q: Identify whether the compound COC(=O)[C@H](Cc1ccc(-c2ccc3ccccc3c2)cc1)NC(=O)CCCCCCC(=O)NO records Ratio IC50 below 1.
A: yes

Q: Identify whether the compound COC(=O)[C@H](Cc1ccc(-c2ccc(-c3ccccc3)cc2)cc1)NC(=O)CCCCCCCC(=O)NO records Ratio IC50 below 1.
A: no

Q: Identify whether the compound CN(C)c1ccc(C(=O)NCCCCCCC(=O)NO)cc1 records Ratio IC50 below 1.
A: no

---

Please go through the items and note down their IC50.
experimentalSystem: Protein deacetylase HDAC6 (Homo sapiens)
procedureDetails: Inhibition of FLAG-tagged HDAC6 expressed in human 293T cells
Non-standard residues stand in square brackets, D forms with d. Residues, ends and D or L forms follow the SMILES beside them. *: point of attachment. Asu = N[C@@H](CCCCCC(=O)O)C(=O)O; Aib = CC(C)(N)C(=O)O; NHOH = ON*
The answer is to be given in nM; state only the numeric part.

Q: # lookup: IC50 of COC(=O)[C@H](Cc1ccc(-c2ccoc2)cc1)NC(=O)CCCCCCC(=O)NO
A: 1130

Q: # lookup: IC50 of CN(C)c1ccc(C(=O)NCCCCCCC(=O)NO)cc1
A: 750

Q: # lookup: IC50 of COC(=O)[C@H](Cc1ccc(-c2ccc(-c3ccccc3)cc2)cc1)NC(=O)CCCCCCC(=O)NO
A: 690

Q: # lookup: IC50 of COC(=O)[C@H](Cc1ccc(-c2ccco2)cc1)NC(=O)CCCCCCC(=O)NO
A: 4490

Q: # lookup: IC50 of COC(=O)[C@H](Cc1ccc(-c2ccsc2)cc1)NC(=O)CCCCCCC(=O)NO
A: 4020

Q: # lookup: IC50 of CC1(C)NC(=O)[C@H](CCCCCC(=O)NO)NC(=O)[C@H]2CCCN2C(=O)[C@H](Cc2ccccc2)NC1=O (cyclo([Aib]F[dP][Asu](NHOH)))
A: 40

Q: # lookup: IC50 of COC(=O)[C@H](Cc1ccc(-c2ccccc2)cc1)NC(=O)CCCCCCC(=O)NO
A: 1050

Q: # lookup: IC50 of COC(=O)[C@H](Cc1ccc(-c2ccccc2)cc1)NC(=O)CCCCCCCC(=O)NO
A: 2330

Q: # lookup: IC50 of COC(=O)[C@H](Cc1ccc(-c2cccs2)cc1)NC(=O)CCCCCCC(=O)NO
A: 9990
